# assay-target: human orexin-2 receptor (Homo sapiens (Human), UniProt O43614)
# Sequence (O43614 whole entry): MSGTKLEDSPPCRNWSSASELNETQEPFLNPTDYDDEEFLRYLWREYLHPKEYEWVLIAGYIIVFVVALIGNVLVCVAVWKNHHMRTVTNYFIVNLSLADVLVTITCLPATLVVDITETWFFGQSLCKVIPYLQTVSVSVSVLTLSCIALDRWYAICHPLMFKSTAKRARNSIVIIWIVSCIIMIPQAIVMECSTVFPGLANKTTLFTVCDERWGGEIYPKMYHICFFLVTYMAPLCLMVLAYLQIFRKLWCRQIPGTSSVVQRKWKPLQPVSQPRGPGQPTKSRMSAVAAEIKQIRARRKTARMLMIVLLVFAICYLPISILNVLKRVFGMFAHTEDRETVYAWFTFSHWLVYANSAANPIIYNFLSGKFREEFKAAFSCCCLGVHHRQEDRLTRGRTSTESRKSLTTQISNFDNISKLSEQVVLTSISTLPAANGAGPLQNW
# measurement-protocol: In vitro intracellular calcium measurements (FLIPR), antagonistic activity on orexin-2 receptor
# Format: cell-based
# condition: CHO cells expressing human orexin-2 receptor; FLIPR; 3 nM orexin-A agonist; 120 min antagonist incubation; geometric mean if determined several times; read-out: IC50 OX2
pIC50: −log10 of the molar value.
Each entry below carries its reported pIC50.
endpoint-name: pIC50

molecule: Cc1ccc(C(=O)N2CCOC[C@H]2Cc2cc(-n3nccn3)ccc2F)c(-n2nccn2)c1 [Example 62]
assay-target: human orexin-2 receptor (Homo sapiens (Human), UniProt O43614)
observed: 6.39
//
molecule: COc1cc(C(=O)N2CCOC[C@H]2Cc2cc(-n3nccn3)ccc2F)c(-n2nccn2)cc1C [Example 134]
assay-target: human orexin-2 receptor (Homo sapiens (Human), UniProt O43614)
observed: 6.47
//
molecule: O=C(c1cccc(Cl)c1-n1nccn1)N1CCOC[C@H]1Cc1cccc(-n2nccn2)c1 [Example 107]
assay-target: human orexin-2 receptor (Homo sapiens (Human), UniProt O43614)
observed: 6.36
//
molecule: O=C(c1cc(F)ccc1-n1nccn1)N1CCOC[C@H]1Cc1cccc(-n2nccn2)c1 [Example 26]
assay-target: human orexin-2 receptor (Homo sapiens (Human), UniProt O43614)
observed: 6.09
